system: Canis familiaris; assay: Duration of action against Ascaris allergens induced cutaneous reactions was determined by oral administration at four times the peak effect dose in dog; assay type: functional, Canis lupus familiaris
Observed property: Time (h)

* Cl.Cl.NC(=O)c1cnc2n1CCc1ccccc1C21CCNCC1 [VAPITADINE DIHYDROCHLORIDE] | 21
* Cn1ccc2c1CCn1ccnc1C2=C1CCNCC1 | 35
* Cn1ccc2c1C(=O)Cn1ccnc1C2=C1CCNCC1 | 13
* CCOC(=O)N1CCC(=C2c3ccc(Cl)cc3CCc3cccnc32)CC1 [LORATADINE] | 33
* Cl.Cl.O=C(O)COCCN1CCN([C@H](c2ccccc2)c2ccc(Cl)cc2)CC1 [LEVOCETIRIZINE DIHYDROCHLORIDE] | 30

---

test system: Canis familiaris; assay: Peak effective dose for inhibition of skin reactions induced by Ascaris allergens in dog by 4 hr after the oral administration; conditions: Canis lupus familiaris
Please use 1 for ED50 under 0.1 mg/kg and -1 for everything else, ties included.

* Cn1ccc2c1CCn1ccnc1C2=C1CCNCC1 | 1
* CCOC(=O)N1CCC(=C2c3ccc(Cl)cc3CCc3cccnc32)CC1 | -1
* Cl.Cl.O=C(O)COCCN1CCN([C@H](c2ccccc2)c2ccc(Cl)cc2)CC1 [LEVOCETIRIZINE DIHYDROCHLORIDE] | -1
* Cl.Cl.NC(=O)c1cnc2n1CCc1ccccc1C21CCNCC1 [VAPITADINE DIHYDROCHLORIDE] | 1
* Cn1ccc2c1C(=O)Cn1ccnc1C2=C1CCNCC1 | 1

---

test: Solubility in 0.1 M HCl at pH 2.7; format: physicochemical
Observed property: solubility

* Cl.NC(=O)c1cnc2n1CCc1ccccc1C21CCNCC1 | > 20 mg/mL

---

experiment: Solubility in buffer (pH 4) at pH 2.9; format: physicochemical
Observed property: solubility

• Cl.Cl.NC(=O)c1cnc2n1CCc1ccccc1C21CCNCC1 [VAPITADINE DIHYDROCHLORIDE] = > 20 mg/mL

---

Measured ED50 accompanies every entry in the list below.
tested on: Rattus norvegicus; assay: Effective dose for the inhibition of 48/80-induced lethal anaphylactic reaction was determined in rat by 2 hour after oral administration; format: functional
Observed property: ED50

* Cn1ccc2c1C(=O)Cn1ccnc1C2=C1CCNCC1 | 0.34 mg/kg
* Cl.Cl.O=C(O)COCCN1CCN([C@H](c2ccccc2)c2ccc(Cl)cc2)CC1 [LEVOCETIRIZINE DIHYDROCHLORIDE] | 1.2 mg/kg
* Cl.Cl.NC(=O)c1cnc2n1CCc1ccccc1C21CCNCC1 [VAPITADINE DIHYDROCHLORIDE] | 1.2 mg/kg
* CCOC(=O)N1CCC(=C2c3ccc(Cl)cc3CCc3cccnc32)CC1 [LORATADINE] | 0.22 mg/kg

---

tested on: Cavia porcellus; test: Effective dose for inhibition of skin reactions induced by Ascaris allergens in guinea pig by 2 hr after the oral administration
Observed property: ED50 (mg/kg)

* Cn1ccc2c1C(=O)Cn1ccnc1C2=C1CCNCC1 | 0.42
* Cl.Cl.NC(=O)c1cnc2n1CCc1ccccc1C21CCNCC1 [VAPITADINE DIHYDROCHLORIDE] | 1.2
* Cn1ccc2c1CCn1ccnc1C2=C1CCNCC1 | 8.7
* CCOC(=O)N1CCC(=C2c3ccc(Cl)cc3CCc3cccnc32)CC1 [LORATADINE] | 0.42

---

assay: Solubility in water at pH 2.0; format: physicochemical
Observed property: solubility

• Cl.Cl.NC(=O)c1cnc2n1CCc1ccccc1C21CCNCC1 [VAPITADINE DIHYDROCHLORIDE] = > 20 mg/mL

---

assay: Solubility in buffer (pH 10) at pH 10.2; type: physicochemical
Observed property: solubility (µg/mL)

• Cl.NC(=O)c1cnc2n1CCc1ccccc1C21CCNCC1 = 1650

---

test: Solubility in buffer (pH 2) at pH 4.8; format: physicochemical
Observed property: solubility

- Cl.NC(=O)c1cnc2n1CCc1ccccc1C21CCNCC1: > 20 mg/mL

---

test: Solubility in buffer (pH 6) at pH 4.2; format: physicochemical
Observed property: solubility

- Cl.Cl.NC(=O)c1cnc2n1CCc1ccccc1C21CCNCC1 [VAPITADINE DIHYDROCHLORIDE]: > 20 mg/mL

---

experiment: Solubility in water mg/mL; type: physicochemical
Observed property: solubility

* Cl.Cl.NC(=O)c1cnc2n1CCc1ccccc1C21CCNCC1 [VAPITADINE DIHYDROCHLORIDE] | > 20 mg/mL
